Assay: Drug concentration and pharmacokinetics in muscle near the injection site after sciatic nerve block in rats
Format: in vivo, rat
Details: male, rat, muscle near the injection site; muscle; given as LL-1, sciatic nerve block; n = 5 per time point; mean ± SEM
Experimental: In brief, rats were anesthetized by inhaling 1%–2% isoflurane mixed with oxygen through an inhouse-made mask. Then, the rats were placed at right lateral position and inserted vertically using a 23-gauge injector at the middle of the line from the greater trochanter to ischial tuberosity ([Binshtok et al., 2007]; [Zhang et al., 2017b]). […] The parameters of pharmacokinetics were analyzed by DAS® (Drug and Statistics, version 3.2.1, China) using noncompartmental model. […]
Parameter measured: Vd/F (L)
Answer in L, number only, no unit symbol.

Vd/F recorded for this compound, CCCCN1CCCC[C@H]1C(=O)Nc1c(C)cccc1C , is 3.01
